This listing pairs compounds with measured minimal effective dose.
tested on: Chloroform-induced arrhythmia; assay: Chloroform-induced arrhythmia (mice); conditions: Mus musculus, po, 1 h, read-out: Effective dose
Kindly answer with a numeric value in mg/kg, unit omitted.

Recorded results for 3 compounds are shown here.
COMPOUND	SYSTEM	REPORTED PROPERTY	NUMERIC RESULT
CC1(C)CC2(NC(=O)N(CCCN3CCC(O)CC3)C2=O)c2cc(F)ccc2O1 (centres unmarked) [drawing 13]	Chloroform-induced arrhythmia	minimal effective dose	25
CC1(C)CC2(NC(=O)N(CCCN3CCC(O)CC3)C2=O)c2cc(Cl)ccc2O1 (centres unmarked) [drawing 12]	Chloroform-induced arrhythmia	minimal effective dose	25
O=C1NC(=O)C(c2ccccc2)(c2ccccc2)N1 [Phenytoin sodium, reference compound]	Chloroform-induced arrhythmia	minimal effective dose	100

Shift focus to the following entry.
Fill in: minimal effective dose of CCN(CC)CCN1C(=O)NC2(CC(C)(C)Oc3ccc(F)cc32)C1=O (centres unmarked) is ___ 12.5

* * *

This listing pairs molecules with measured minimal effective dose.
System: Chloroform-induced arrhythmia
Experiment: Chloroform-induced arrhythmia (mice)
Settings: Mus musculus, po, 1 h, read-out: Effective dose
Description: (1) Chloroform-induced arrhythmia (mice): Ventricular arrhythmia was caused experimentally in mice by the following method. The mice were placed in a device filled with chloroform gas. After expiring, the ventricular pulse was counted from a record of an electrocardiogram. The antiarrhythmic activity of the test compound was determined based on its effect of relieving tachycardia. […] The compounds were tested by administration by two routes, i.e. peroral and intravenous injection. […]
Kindly answer with a numeric value in mg/kg, unit omitted.

Recorded results for 8 molecules are shown here.
MOLECULE	REPORTED PROPERTY	NUMERIC RESULT
CC1(C)CC2(NC(=O)N(CCCN3CCC(c4ccccc4)CC3)C2=O)c2cc(F)ccc2O1 (stereo not shown)	minimal effective dose	50
C=CC1CN2CCC1CC2C(O)c1ccnc2ccc(OC)cc12 (stereo not shown) [Quinidine sulfonate, reference compound]	minimal effective dose	200
CCC1(CC)CC2(NC(=O)N(CCCN3CCC(O)CC3)C2=O)c2cc(F)ccc2O1 (stereo not shown)	minimal effective dose	25
COC1CCN(CCCN2C(=O)NC3(CC(C)(C)Oc4ccc(F)cc43)C2=O)CC1 (stereo not shown)	minimal effective dose	25
CC(C)N(CCC(C(N)=O)(c1ccccc1)c1ccccn1)C(C)C (stereo not shown) [Disopyramide phosphate, reference compound]	minimal effective dose	50
CC1(C)CC2(NC(=O)N(CCCN3CCC(O)CC3)C2=O)c2cc(Cl)cc(Cl)c2O1 (stereo not shown)	minimal effective dose	12.5
CC(C)N(CCN1C(=O)NC2(CC(C)(C)Oc3ccc(F)cc32)C1=O)C(C)C (stereo not shown)	minimal effective dose	25
CN(C)CCN1C(=O)NC2(CC(C)(C)Oc3ccc(F)cc32)C1=O (stereo not shown)	minimal effective dose	50

Fill in: minimal effective dose of CCC1(CC)CC2(NC(=O)N(CCCN(C)C)C2=O)c2cc(Cl)ccc2O1 (stereo not shown) is ___ 25

Fill in: minimal effective dose of CC1CC2(NC(=O)N(CCCN(C)C)C2=O)c2cc(Cl)ccc2O1 (stereo not shown) is ___ 12.5

meta.source: patent US4650798A
